assay: DNDI: Metabolism; type: ADME, Canis lupus familiaris, 9615, Microsome; conditions: dog, microsomes
Experimental Readout: half-life (h)

| Compound | Endpoint Unit | Measured Value |
| --- | --- | --- |
| O=C(C(c1ccc(Cl)cc1)c1cccnc1)N1CCN(c2ccc(C(F)(F)F)cc2)CC1 (stereo unspecified) | h | 2.17 |

---

assay: DNDI: Metabolism; type: ADME, Microsome; settings: human, microsomes

| Molecule | half-life |
| --- | --- |
| O=C(C(c1ccc(Cl)cc1)c1cncnc1)N1CCN(c2ccc(C(F)(F)F)cc2)CC1 (stereo unspecified) | 30 min |
| O=C(C(c1ccc(Cl)cc1)c1cccnc1)N1CCN(c2ccc(C(F)(F)F)cn2)CC1 (stereo unspecified) | 41 min |
| O=C(C(c1ccc(Cl)cc1)c1cncnc1)N1CCN(c2ccc(C(F)(F)F)nc2)CC1 (stereo unspecified) | 31 min |
| N#Cc1ccc(C(C(=O)N2CCN(c3ccc(C(F)(F)F)cc3)CC2)c2cccnc2)cc1 (stereo unspecified) | 50 min |
| N#Cc1ccc(C(C(=O)N2CCN(c3ccc(C(F)(F)F)nc3)CC2)c2cccnc2)cc1 (stereo unspecified) | 144 min |
| N#Cc1ccc(C(C(=O)N2CCN(c3ccc(C(F)(F)F)cn3)CC2)c2cccnc2)cc1 (stereo unspecified) | 60 min |
| O=C(C(c1ccc(Cl)cc1)c1cccnc1)N1CCN(Cc2ccccc2C(F)(F)F)CC1 (stereo unspecified) | 4 min |
| O=C(C(c1ccc(Cl)cc1)c1cncnc1)N1CCN(c2ccc(C(F)(F)F)cn2)CC1 (stereo unspecified) | 23 min |
| O=C(C(c1ccc(Cl)cc1)c1cccnc1)N1CCN(c2ccc(C(F)(F)F)cc2)CC1 (stereo unspecified) | 85 min |
| CS(=O)(=O)c1ccc(N2CCN(C(=O)C(c3ccc(Cl)cc3)c3cncnc3)CC2)cc1 (stereo unspecified) | 50 min |
| O=C(C(c1ccc(Cl)cc1)c1cccnc1)N1CCN(c2ccc(C(F)(F)F)nc2)CC1 (stereo unspecified) | 41 min |

---

test: DNDI: pKa; type: physicochemical
Experimental Readout: pKa

| Compound | Experimental Readout | Measured Value |
| --- | --- | --- |
| O=C(C(c1ccc(Cl)cc1)c1cccnc1)N1CCN(c2ccc(C(F)(F)F)cc2)CC1 (stereo unspecified) | pKa | 2.62 |

---

assay: DNDI: Metabolism; format: ADME, Canis lupus familiaris, 9615, Microsome; settings: dog, microsomes

| Compound | microsomal CLint / µL/min/mg |
| --- | --- |
| O=C(C(c1ccc(Cl)cc1)c1cccnc1)N1CCN(c2ccc(C(F)(F)F)cc2)CC1 (stereo unspecified) | 13 |

---

assay: DNDI: Protein binding 10% serum RPMI; format: ADME; settings: RPMI with 10% serum; read-out: % bound (converted)

| Compound | fraction unbound |
| --- | --- |
| O=C(C(c1ccc(Cl)cc1)c1cccnc1)N1CCN(c2ccc(C(F)(F)F)cc2)CC1 (stereo unspecified) | 0.076 |

---

assay: DNDI: Metabolism; assay type: ADME, Microsome; conditions: human, microsomes; read-out: EH
Parameter: hepatic extraction ratio. Scope: all listed entries.

| Compound | hepatic extraction ratio |
| --- | --- |
| O=C(C(c1ccc(Cl)cc1)c1cccnc1)N1CCN(Cc2ccccc2C(F)(F)F)CC1 (centres undefined) | 0.96 |
| O=C(C(c1ccc(Cl)cc1)c1cccnc1)N1CCN(c2ccc(C(F)(F)F)cc2)CC1 (centres undefined) | 0.53 |
| O=C(C(c1ccc(Cl)cc1)c1cncnc1)N1CCN(c2ccc(C(F)(F)F)nc2)CC1 (centres undefined) | 0.76 |
| O=C(C(c1ccc(Cl)cc1)c1cncnc1)N1CCN(c2ccc(C(F)(F)F)cn2)CC1 (centres undefined) | 0.81 |
